# study system: Integrin alpha-V/beta-3 (Homo sapiens, UniProt P05106+P06756)
# Sequence (P05106 27-788 limits assumed): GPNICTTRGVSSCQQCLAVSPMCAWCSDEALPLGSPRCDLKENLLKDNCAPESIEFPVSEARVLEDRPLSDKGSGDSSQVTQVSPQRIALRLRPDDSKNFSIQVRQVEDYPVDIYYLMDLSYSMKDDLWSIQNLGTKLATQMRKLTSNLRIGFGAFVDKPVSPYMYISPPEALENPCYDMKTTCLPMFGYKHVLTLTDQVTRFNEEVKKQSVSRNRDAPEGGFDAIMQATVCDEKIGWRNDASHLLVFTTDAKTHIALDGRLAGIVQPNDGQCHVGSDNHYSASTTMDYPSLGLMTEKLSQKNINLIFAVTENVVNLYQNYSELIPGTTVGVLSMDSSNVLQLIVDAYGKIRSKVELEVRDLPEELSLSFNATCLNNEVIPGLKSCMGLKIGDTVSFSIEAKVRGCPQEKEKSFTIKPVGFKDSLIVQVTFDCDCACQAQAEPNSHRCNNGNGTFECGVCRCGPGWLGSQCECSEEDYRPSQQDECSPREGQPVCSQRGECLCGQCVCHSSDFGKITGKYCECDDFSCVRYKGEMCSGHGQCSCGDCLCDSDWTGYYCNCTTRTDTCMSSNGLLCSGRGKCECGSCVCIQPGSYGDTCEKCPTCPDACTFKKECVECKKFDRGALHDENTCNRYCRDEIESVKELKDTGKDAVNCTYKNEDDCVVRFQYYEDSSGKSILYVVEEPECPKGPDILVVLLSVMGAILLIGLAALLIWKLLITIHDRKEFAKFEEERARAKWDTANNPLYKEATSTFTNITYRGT
# Sequence (P06756 31-889 limits assumed): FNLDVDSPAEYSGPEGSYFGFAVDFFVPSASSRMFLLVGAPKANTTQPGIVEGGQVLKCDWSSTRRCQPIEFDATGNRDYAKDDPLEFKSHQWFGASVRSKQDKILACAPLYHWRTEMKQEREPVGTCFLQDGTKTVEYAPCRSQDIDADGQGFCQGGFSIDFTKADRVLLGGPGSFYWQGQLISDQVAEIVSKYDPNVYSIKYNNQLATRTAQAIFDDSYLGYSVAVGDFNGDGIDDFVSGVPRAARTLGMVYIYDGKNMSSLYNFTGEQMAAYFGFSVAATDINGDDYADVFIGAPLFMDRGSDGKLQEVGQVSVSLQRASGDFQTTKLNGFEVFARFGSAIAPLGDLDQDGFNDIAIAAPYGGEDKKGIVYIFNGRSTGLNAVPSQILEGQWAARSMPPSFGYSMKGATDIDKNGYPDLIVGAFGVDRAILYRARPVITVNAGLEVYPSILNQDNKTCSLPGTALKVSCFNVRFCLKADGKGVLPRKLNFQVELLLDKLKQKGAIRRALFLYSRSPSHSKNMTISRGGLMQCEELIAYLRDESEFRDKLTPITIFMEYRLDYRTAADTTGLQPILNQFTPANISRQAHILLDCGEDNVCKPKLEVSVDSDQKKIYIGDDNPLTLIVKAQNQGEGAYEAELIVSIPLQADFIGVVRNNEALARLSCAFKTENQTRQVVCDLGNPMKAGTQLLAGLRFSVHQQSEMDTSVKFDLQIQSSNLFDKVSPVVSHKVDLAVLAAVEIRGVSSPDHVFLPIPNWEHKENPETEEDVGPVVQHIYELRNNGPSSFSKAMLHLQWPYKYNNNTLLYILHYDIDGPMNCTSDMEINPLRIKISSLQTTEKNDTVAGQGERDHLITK
# Sequence (P06756 891-1048 limits assumed): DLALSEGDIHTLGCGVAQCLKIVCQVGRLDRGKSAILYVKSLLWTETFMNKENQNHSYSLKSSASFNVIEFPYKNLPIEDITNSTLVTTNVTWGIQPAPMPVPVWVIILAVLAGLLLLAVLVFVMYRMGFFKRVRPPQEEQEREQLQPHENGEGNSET
# assay remarks: Displacement of 125-I-echistatin from human placental integrin alphavbeta3 receptor incubated for 3 hrs by microplate scintillation counting analysis
experimental endpoint: IC50
Give the figure together with its unit, number first.

# value lookup — system Integrin alpha-V/beta-3 (Homo sapiens, UniProt P05106+P06756), readout IC50, item O=C(O)C[C@H](NC(=O)Cn1cc(CCCNc2ccccn2)nn1)c1ccc(O)cc1
221 nM
